# Assayed target: 5-hydroxytryptamine receptor 6 (Homo sapiens) (UniProt P50406)
# Sequence (P50406 whole entry): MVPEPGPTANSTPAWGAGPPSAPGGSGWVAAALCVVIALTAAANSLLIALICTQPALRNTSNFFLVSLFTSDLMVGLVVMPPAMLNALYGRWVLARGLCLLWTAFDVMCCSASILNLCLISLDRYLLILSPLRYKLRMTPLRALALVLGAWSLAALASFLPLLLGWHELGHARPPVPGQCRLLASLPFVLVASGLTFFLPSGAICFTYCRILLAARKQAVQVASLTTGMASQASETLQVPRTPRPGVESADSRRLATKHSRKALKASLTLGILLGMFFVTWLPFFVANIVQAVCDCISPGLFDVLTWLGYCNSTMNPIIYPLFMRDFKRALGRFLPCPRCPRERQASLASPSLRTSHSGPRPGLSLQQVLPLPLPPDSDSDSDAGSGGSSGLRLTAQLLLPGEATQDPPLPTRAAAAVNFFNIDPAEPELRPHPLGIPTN
# Procedure details: Antagonist activity at recombinant human 5-HT6R assessed as inhibition of agonist-induced cAMP induction at 10 uM by HTRF assay
# Format: functional
Experimental endpoint: inhibition (%)

In [3]: df
Out[3]:
                            smiles_str                            assayed_target  experimental_endpoint  test_result
0  CN(CCCNC(=O)c1ccc(Cl)cc1)CCc1ccccc1  5-hydroxytryptamine receptor 6 (Homo sapiens) (UniProt P50406)             inhibition            3

A. CN(CCCNC(=O)c1cccc(Br)c1)Cc1ccccc1
B. CN(CCNC(=O)c1ccc([N+](=O)[O-])cc1)Cc1ccccc1
C. CN(CCCNC(=O)c1ccc([N+](=O)[O-])cc1)Cc1ccccc1
Kindly order the items shown according to inhibition, from the highest value down. Kindly provide the labels arranged according to the requested ordering.
B, A, C

// provenance: ChEMBL document CHEMBL4130363
